Assay: folding enthalpy; higher = less favourable; fluorescence melt of hairpins on a sequencing array, two-state fit
Details: sodium 0.088 M
List of folding enthalpy values.

The reported value for GGGAGAGGAAACTCTCCC (((((((....))))))) in terms of folding enthalpy is -42.9 kcal/mol

The reported value for GTCTACGGAAACGTGGAC (((.(((....))).))) in terms of folding enthalpy is -39.8 kcal/mol

The reported value for GCCGGCGGAAACACCGGC (((((.(....).))))) in terms of folding enthalpy is -44.1 kcal/mol

The reported value for GGATCGAAAGATCC (((((....))))) in terms of folding enthalpy is -29.6 kcal/mol

The reported value for GTCATCGGAAACGACGAC (((.(((....))).))) in terms of folding enthalpy is -29.7 kcal/mol

The reported value for CGCGGAAAAACCGCG ((...........)) in terms of folding enthalpy is -29.7 kcal/mol

The reported value for GGCCATCGAAAGATAGCC (((.(((....))).))) in terms of folding enthalpy is -29.4 kcal/mol

The reported value for GCGAGCCGAAAGGCCCGC (((.(((....))).))) in terms of folding enthalpy is -26.1 kcal/mol

Others:
The reported value for GAGAGCGAAAGCTGTCTC ((((((....)))..))) in terms of folding enthalpy is -20.3 kcal/mol

The reported value for GTCCCCCCGAAAGGGGAC (((..(((....)))))) in terms of folding enthalpy is -16.9 kcal/mol

The reported value for GAACAACCGAAAGGTTTC (((..(((....)))))) in terms of folding enthalpy is -9.63 kcal/mol

The reported value for GTTGTGCGAAAGCAAAAC (((.(((....))).))) in terms of folding enthalpy is -24 kcal/mol

The reported value for GGGCCCGGAAACGAGCCC ((((.((....)).)))) in terms of folding enthalpy is -47.5 kcal/mol

The reported value for ATTTGGAAACAAAT (((((....))))) in terms of folding enthalpy is -12.8 kcal/mol

The reported value for GCTGTGCGAAAGCTAAGC (((..((....))..))) in terms of folding enthalpy is -21.4 kcal/mol

* * *

Assay: melting temperature; fluorescence melt of hairpins on a sequencing array, two-state fit, raised by 9.35 °C to match UV melts
Details: sodium 0.088 M
List of Tm values.
The reply should consist of the numeric value with the unit placed after it.

Known Tm results, listed for orientation:
The reported value for GAGCGCGAAAGCGTGCTC ((((((....)))..))) in terms of Tm is 56.4 °C

The reported value for GTGACAGGAAACTGTCAC (((((((....))))))) in terms of Tm is 65.2 °C

The reported value for GCACTTGGAAACAAGCGC ((.((((....)))).)) in terms of Tm is 49.5 °C

The reported value for GCGGCGCGAAAGCCCTGC ((.(.((....)).).)) in terms of Tm is 45.6 °C

The reported value for GAGAGCGAAAGCTATCTC ((((((....)))..))) in terms of Tm is 51.2 °C

Others:
The reported value for GCATAGTCGAAAGACTGC (((..(((....)))))) in terms of Tm is 43.1 °C

The reported value for GTATGTCGAAAGACTAC (((.(((....)))))) in terms of Tm is 41.3 °C

The reported value for GCACGTCGAAAGACATGC (((.(((....))).))) in terms of Tm is 52.7 °C

The reported value for GAAGTGGGAAACTGCTTC ((((..(....)..)))) in terms of Tm is 39.6 °C

Reference source for all entries: the array DNA melting data of Ke et al. (doi:10.1101/2024.01.08.574731)
